- TESTED_ON: FMO (Mus musculus, UniProt Q64133+Q8BW75)
- Sequence (Q8BW75 whole entry): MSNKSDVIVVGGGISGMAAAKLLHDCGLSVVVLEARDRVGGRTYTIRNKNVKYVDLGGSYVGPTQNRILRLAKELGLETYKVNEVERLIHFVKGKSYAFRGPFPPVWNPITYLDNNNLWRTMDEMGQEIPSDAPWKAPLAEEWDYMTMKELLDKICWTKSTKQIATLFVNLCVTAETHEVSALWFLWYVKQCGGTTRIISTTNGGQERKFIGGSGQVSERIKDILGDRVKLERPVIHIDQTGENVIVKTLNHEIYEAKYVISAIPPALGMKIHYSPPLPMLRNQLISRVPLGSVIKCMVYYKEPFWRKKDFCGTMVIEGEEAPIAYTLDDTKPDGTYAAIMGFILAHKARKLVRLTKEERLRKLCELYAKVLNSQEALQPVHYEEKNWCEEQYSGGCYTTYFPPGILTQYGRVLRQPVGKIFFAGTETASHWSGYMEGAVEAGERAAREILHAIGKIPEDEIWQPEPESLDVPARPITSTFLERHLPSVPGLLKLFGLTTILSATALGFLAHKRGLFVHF
- Sequence (Q64133 whole entry): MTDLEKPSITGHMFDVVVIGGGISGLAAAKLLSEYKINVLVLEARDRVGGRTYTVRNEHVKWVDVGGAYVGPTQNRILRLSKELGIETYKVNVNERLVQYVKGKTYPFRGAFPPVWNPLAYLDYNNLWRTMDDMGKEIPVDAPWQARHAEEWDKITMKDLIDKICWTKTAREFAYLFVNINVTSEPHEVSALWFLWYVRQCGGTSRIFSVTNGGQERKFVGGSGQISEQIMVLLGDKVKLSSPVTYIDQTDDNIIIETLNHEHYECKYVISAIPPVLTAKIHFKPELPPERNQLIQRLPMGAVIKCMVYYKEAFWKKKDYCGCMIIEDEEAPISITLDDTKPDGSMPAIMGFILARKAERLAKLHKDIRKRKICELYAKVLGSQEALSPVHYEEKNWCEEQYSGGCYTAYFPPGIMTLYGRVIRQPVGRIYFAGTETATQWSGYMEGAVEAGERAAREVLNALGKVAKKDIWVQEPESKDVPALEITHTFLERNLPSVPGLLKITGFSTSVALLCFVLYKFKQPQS
- ASSAY_TEXT: Compound was evaluated for inhibition of FMO at 100 uM concentration
- Format: protein assay
VALUE_KIND: inhibition at 100 µM (%)

• O=C(CC(Cc1ccccc1)C(=O)O)c1ccc(Cl)c(Cl)c1 (stereo unspecified) = 16

All values here come from ChEMBL document CHEMBL1130635.
